Cited source for all entries: patent US8932597B2

- Test system: HuM2e antibody 23K12
- Format: binding, human
recorded_endpoint: Signal (peptides that bind to 23K21 and 8I10)
API doc: respond with a numeric literal and nothing else, no unit.

Record excerpt, results attached:
547 (SLLTETETPIRNEWGCRCNDSSD; epitope peptide) [compound 547]	919
376 (CSLLTECGMSLLTEC; epitope peptide) [compound 376]	1445
463 (CSLLTECGSLLTCV; epitope peptide) [compound 463]	1258
670 (SLLTEVETWIRNEWGCRCNDSSD; epitope peptide) [compound 670]	736

Signal (peptides that bind to 23K21 and 8I10) in this record for 308 (MSLCTEVGMCLCTCV; epitope peptide) [compound 308] : 1902

Signal (peptides that bind to 23K21 and 8I10) in this record for 557 (MSCLTEVGCSLLTEV; epitope peptide) [compound 557] : 899

Signal (peptides that bind to 23K21 and 8I10) in this record for 619 (SLLTEVETPIRNEWGCRCNASSD; epitope peptide) [compound 619] : 807

Signal (peptides that bind to 23K21 and 8I10) in this record for 250 (CSLLTEVETCTEVETPIRNEWGSRSC; epitope peptide) [compound 250] : 786

Signal (peptides that bind to 23K21 and 8I10) in this record for 414 (SLLTEVETPIRNEWGCRCNDQSD; epitope peptide) [compound 414] : 739

Signal (peptides that bind to 23K21 and 8I10) in this record for 604 (SLCTEVGSCLTEV; epitope peptide) [compound 604] : 824

Signal (peptides that bind to 23K21 and 8I10) in this record for 600 (SLLTEVETPIRNEWGLRCNDSSD; epitope peptide) [compound 600] : 831

Signal (peptides that bind to 23K21 and 8I10) in this record for 516 (SLLTEVETPIRNEWGCRCPDSSD; epitope peptide) [compound 516] : 1024

Signal (peptides that bind to 23K21 and 8I10) in this record for 325 (SLLTECGSLLTEV; epitope peptide) [compound 325] : 1770

Signal (peptides that bind to 23K21 and 8I10) in this record for 337 (SLLTEVETPIRNEWGCRCNYSSD; epitope peptide) [compound 337] : 1666

Signal (peptides that bind to 23K21 and 8I10) in this record for 370 (SLLTEVETPIRNEWGERCNDSSD; epitope peptide) [compound 370] : 1474

Signal (peptides that bind to 23K21 and 8I10) in this record for 566 (SLLTEVCTPIRNEWGCRCNDSSD; epitope peptide) [compound 566] : 881

---

- Test system: anti-M2 human monoclonal antibody Z3G1
- Type: binding
Here the recorded Signal (peptides that show specific binding to Z3G1) is given for each entry.
API doc: respond with a numeric literal and nothing else, no unit.

Record excerpt, results attached:
354 (SLLTEVGCSLLTEV; epitope peptide) [compound 354]	2511
1561 (SLLCEVGCLCTCV; epitope peptide) [compound 1561]	2331
583 (SLLTEVWTPIRNEWGCRCNDSSD; epitope peptide) [compound 583]	1889
385 (CSLLTEVGCLCTCV; epitope peptide) [compound 385]	2474
459 (SLITEVETPIRNEWGCRCNDSSD; epitope peptide) [compound 459]	1996
713 (SLLTEVETPIRNEWGQRCNDSSD; epitope peptide) [compound 713]	2369
488 (SLLTEVETPIHNEWGCRCNDSSD; epitope peptide) [compound 488]	2121
127 (CSLLTEVETCSLLTEVETC; epitope peptide) [compound 127]	2555

anti-M2 human monoclonal antibody Z3G1 assay, substance 1590 (SLLWEVETPIRNEWGCRCNDSSD; epitope peptide) [compound 1590] , recorded Signal (peptides that show specific binding to Z3G1) = 2221

anti-M2 human monoclonal antibody Z3G1 assay, substance 1573 (QLLTEVETPIRNEWGCRCNDSSD; epitope peptide) [compound 1573] , recorded Signal (peptides that show specific binding to Z3G1) = 1627

anti-M2 human monoclonal antibody Z3G1 assay, substance 668 (SLLTEVETPIRNEWGYRCNDSSD; epitope peptide) [compound 668] , recorded Signal (peptides that show specific binding to Z3G1) = 2410

---

- Test system: anti-M2 human monoclonal antibody Z3G1
- Type: binding
recorded_endpoint: Signal (peptides that bind to Z3G1)
API doc: respond with a numeric literal and nothing else, no unit.

1262 (MQLLTEVETPIRNEWGCRCN; epitope peptide) [compound 1262]	2526
1264 (MVLLTEVETPIRNEWGCRCN; epitope peptide) [compound 1264]	2465
1268 (MSMLTEVETPIRNEWGCRCN; epitope peptide) [compound 1268]	1329
1310 (MSLLTEVWTPIRNEWGCRCN; epitope peptide) [compound 1310]	2546
628 (SLLTEVETPIRNEWGCRCMDSSD; epitope peptide) [compound 628]	2470
296 (MSLLTEVGMCLLTEV; epitope peptide) [compound 296]	2809

Signal (peptides that bind to Z3G1) in this record for 1322 (MCLLTEVECPIRNE; epitope peptide) [compound 1322] : 2421

Signal (peptides that bind to Z3G1) in this record for 1307 (MSLLTEVNTPIRNEWGCRCN; epitope peptide) [compound 1307] : 2807

Signal (peptides that bind to Z3G1) in this record for 330 (SLLTEVETPIRNEWGCRCNDYSD; epitope peptide) [compound 330] : 2445

---

Here the recorded Binding activity to truncated M2 peptides, ELISA absorbance at 450 nm, 23K12 is given for each entry.
- Tested on: mAb 23K12
- Assay type: binding, human
API doc: respond with a numeric literal and nothing else, no unit.

LLTEVETPIRNEWGCR [M16]	0.21
SLLTEVETPIRNEWGC [NM16]	0.62
NEWGCRCNDSSD [CM12]	0.39
IRNEWGCRCNDSSD [CM14]	0.36
VETPIRNEWGCR [M12]	0.20
SLLTEVET [NM8]	0.20
SLLTEVETPI [NM10]	0.24
SLLTEVETPIR [NM11]	0.30

Binding activity to truncated M2 peptides, ELISA absorbance at 450 nm, 23K12 in this record for MSLLTEVETPIRNEWGCRCNDSSD [M2e] : 0.43

Binding activity to truncated M2 peptides, ELISA absorbance at 450 nm, 23K12 in this record for SLLTEVETPIRN [NM12] : 0.24

Binding activity to truncated M2 peptides, ELISA absorbance at 450 nm, 23K12 in this record for SLLTEVE [NM7] : 0.20

Binding activity to truncated M2 peptides, ELISA absorbance at 450 nm, 23K12 in this record for SLLTEVETPIRNEWGCRCNDSSD [M2] : 0.22

Binding activity to truncated M2 peptides, ELISA absorbance at 450 nm, 23K12 in this record for SLLTEVETPIRNEWGCR [NM17] : 0.58

Binding activity to truncated M2 peptides, ELISA absorbance at 450 nm, 23K12 in this record for TPIRNEWGCRCNDSSD [CM16] : 0.35

---

- Test system: HuM2e antibody 23K12
- Format: binding, human
Kindly note that classification relies on Signal (peptides that bind to 23K21 and 8I10) with these boundaries: bin A (below 800), bin B (800 to below 1000), bin C (1000 or more)

Place this substance in its band: 397 (SLLTEVETPIRNEWGCRCNQSSD; epitope peptide) [compound 397] bin B

Place this substance in its band: 554 (CLLTEVGSLLTCV; epitope peptide) [compound 554] bin B

Place this substance in its band: 333 (SLLTCVGSLLTEC; epitope peptide) [compound 333] bin C

---

- System: HuM2e antibody 23K12
- Assay type: binding, human
recorded_endpoint: Signal (peptides that bind to 23K21 and 8I10)
API doc: respond with a numeric literal and nothing else, no unit.

Record excerpt, results attached:
640 (SLLTEVETPIRNKWGCRCNDSSD; epitope peptide) [compound 640]	765
345 (CSLLTEVGSCLTEV; epitope peptide) [compound 345]	1616
666 (SLLTEVETPIRNAWGCRCNDSSD; epitope peptide) [compound 666]	743
363 (MSLLTECGCSLLTEV; epitope peptide) [compound 363]	1500

HuM2e antibody 23K12 assay, substance 635 (SLLTEVEAPIRNEWGCRCNDSSD; epitope peptide) [compound 635] , recorded Signal (peptides that bind to 23K21 and 8I10) = 769

---

Here the recorded Signal (peptides that bind to 23K21 and 8I10) is given for each entry.
- System: HuM2e antibody 23K12
- Assay type: binding, human
API doc: respond with a numeric literal and nothing else, no unit.

Record excerpt, results attached:
667 (SLLTEVETPIRNEWGIRCNDSSD; epitope peptide) [compound 667]	739
472 (SLLTECGSLCTEV; epitope peptide) [compound 472]	1218
391 (SNLTEVETPIRNEWGCRCNDSSD; epitope peptide) [compound 391]	1345
307 (SLCTEVGCLCTCV; epitope peptide) [compound 307]	1907

Signal (peptides that bind to 23K21 and 8I10) in this record for 488 (SLLTEVETPIHNEWGCRCNDSSD; epitope peptide) [compound 488] : 1112

Signal (peptides that bind to 23K21 and 8I10) in this record for 290 (CSLLTEVGSLLTCV; epitope peptide) [compound 290] : 2142

Signal (peptides that bind to 23K21 and 8I10) in this record for 309 (CSLLTEVGMSLLCEV; epitope peptide) [compound 309] : 1891

Signal (peptides that bind to 23K21 and 8I10) in this record for 496 (SCLTEVGSLLCEV; epitope peptide) [compound 496] : 1095

Signal (peptides that bind to 23K21 and 8I10) in this record for 493 (SLLTEVETMIRNEWGCRCNDSSD; epitope peptide) [compound 493] : 1104

Signal (peptides that bind to 23K21 and 8I10) in this record for 675 (SLLTEVNTPIRNEWGCRCNDSSD; epitope peptide) [compound 675] : 732
